Biological target: T1, human AMHRII (anti-Mullerian hormone receptor type 2) (human, UniProt Q16671 18-573)
T1 construct: whole, on cells; also called AMHR2; human AMHR2
T1 sequence (looked up): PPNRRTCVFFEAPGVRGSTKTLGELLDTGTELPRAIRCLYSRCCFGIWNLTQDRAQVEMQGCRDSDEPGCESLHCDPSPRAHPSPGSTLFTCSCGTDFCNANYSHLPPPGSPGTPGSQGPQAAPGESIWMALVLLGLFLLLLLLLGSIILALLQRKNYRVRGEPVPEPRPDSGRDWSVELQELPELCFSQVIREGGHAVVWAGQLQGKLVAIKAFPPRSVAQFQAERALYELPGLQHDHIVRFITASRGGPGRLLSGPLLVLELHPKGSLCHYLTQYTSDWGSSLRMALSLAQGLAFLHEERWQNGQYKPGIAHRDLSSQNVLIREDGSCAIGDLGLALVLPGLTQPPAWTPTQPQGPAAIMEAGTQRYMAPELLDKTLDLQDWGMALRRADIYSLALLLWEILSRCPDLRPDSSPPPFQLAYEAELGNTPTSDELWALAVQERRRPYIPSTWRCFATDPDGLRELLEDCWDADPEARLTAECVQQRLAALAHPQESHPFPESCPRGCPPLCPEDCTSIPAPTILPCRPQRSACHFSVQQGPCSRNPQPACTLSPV
Assay: FACS on CHO-K1 cells over-expressing human AMHR2
Procedure: CHO-K1 cells over-expressed AMHR2 were harvested from flasks. 100 μl of 1×10⁶ cells/ml of cells were incubated with the humanized antibodies in 3-fold serial dilutions starting from 300 nM to 0.001 nM for 30 minutes on ice. After being washed with 200 μl of FACS buffer twice, cells were incubated with secondary antibody for 30 minutes on ice. Cells were washed with 200 μl of FACS buffer twice and analyzed by FACS.
Rule: EC50 below 0.9 nM gives condition met. Equal to or above 0.9 nM gives condition not met.

These solved cases illustrate the format of a correct answer.
[[record]]
binder = "31D9B3 VH1.3-VL2 hIgG1 (antibody, V domains shown, Humanized, PTM de-risked (VH G55Q), human IgG1; also called 31D9B3 VH1.3-VL2 hlgG1) VH: QVQLVQSGAEVKKPGASVKVSCKASGYTFTDYWVSWVRQAPGQGLEWMGEIYPKNQVSNFNEKFKGRVTMTTDTSTSTAYMELRSLRSDDTAVYYCARQRDYWGQGTLVTVSS VL: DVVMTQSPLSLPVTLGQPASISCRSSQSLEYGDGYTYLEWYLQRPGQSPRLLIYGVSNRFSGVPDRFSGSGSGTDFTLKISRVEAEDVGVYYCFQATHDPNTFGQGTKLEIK"
class_assignment = "condition not met"

[[record]]
binder = "31D9B3 VH1.3-VL2.3 hIgG1 (antibody, V domains shown, Humanized, PTM de-risked, human IgG1; also called 31D9B3 VH1.3-VL2.3 hlgG1) VH: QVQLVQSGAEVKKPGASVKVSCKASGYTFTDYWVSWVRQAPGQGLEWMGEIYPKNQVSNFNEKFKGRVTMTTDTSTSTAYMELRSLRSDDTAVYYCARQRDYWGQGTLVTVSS VL: DVVMTQSPLSLPVTLGQPASISCRSSQSLEYGTGYTYLEWYLQRPGQSPRLLIYGVSNRFSGVPDRFSGSGSGTDFTLKISRVEAEDVGVYYCFQATHDPNTFGQGTKLEIK"
class_assignment = "condition met"

[[record]]
binder = "31D9B3 VH1.2-VL2.1 hIgG1 (antibody, V domains shown, Humanized, PTM de-risked, human IgG1; also called 31D9B3 VH1.2-VL2.1 hlgG1) VH: QVQLVQSGAEVKKPGASVKVSCKASGYTFTDYWVSWVRQAPGQGLEWMGEIYPKNDVSNFNEKFKGRVTMTTDTSTSTAYMELRSLRSDDTAVYYCARQRDYWGQGTLVTVSS VL: DVVMTQSPLSLPVTLGQPASISCRSSQSLEYGSGYTYLEWYLQRPGQSPRLLIYGVSNRFSGVPDRFSGSGSGTDFTLKISRVEAEDVGVYYCFQATHDPNTFGQGTKLEIK"
class_assignment = "condition not met"


Does 31D9B3 VH1.3-VL2.1 hIgG1 (antibody, V domains shown, Humanized, PTM de-risked, human IgG1; also called 31D9B3 VH1.3-VL2.1 hlgG1) VH: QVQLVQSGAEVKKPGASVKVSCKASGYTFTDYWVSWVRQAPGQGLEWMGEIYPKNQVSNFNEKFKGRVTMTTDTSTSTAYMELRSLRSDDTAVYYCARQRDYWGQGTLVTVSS VL: DVVMTQSPLSLPVTLGQPASISCRSSQSLEYGSGYTYLEWYLQRPGQSPRLLIYGVSNRFSGVPDRFSGSGSGTDFTLKISRVEAEDVGVYYCFQATHDPNTFGQGTKLEIK have EC50 strictly under 0.9 nM?
condition not met

Does 31D9B3 VH1.2-VL2.2 hIgG1 (antibody, V domains shown, Humanized, PTM de-risked, human IgG1; also called 31D9B3 VH1.2-VL2.2 hlgG1) VH: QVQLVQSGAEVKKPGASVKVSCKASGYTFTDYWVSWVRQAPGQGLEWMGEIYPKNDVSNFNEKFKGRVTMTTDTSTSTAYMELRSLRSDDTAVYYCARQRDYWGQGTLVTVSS VL: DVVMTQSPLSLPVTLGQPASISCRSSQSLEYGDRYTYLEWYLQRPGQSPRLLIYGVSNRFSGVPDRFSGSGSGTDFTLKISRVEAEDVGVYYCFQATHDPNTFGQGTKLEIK have EC50 strictly under 0.9 nM?
condition met
